These measurements were taken from patent US20260174847A1.

procedure.text: SPR (Biocore T100) binding affinity to sLeC
assay.context: Example 3, Table 7, mean
Description: An in vitro evaluation of the binding affinity to sLeA and sLeC of the humanized antibodies from Example 1 were performed using a Biocore T100 SPR biosensor using a CM7 sensor chip with PBS-p (0.005% Tween-20) running buffer at 25 degrees Celsius. The antibodies were couples to ˜30,000 RU at 50 ug/ml in 10 mM NaAcetate pH 5.0 over an NHS/EDC activated surface. A reference surface was activated and blocked to serve as a control. […] Binding constants were determined at 25 degrees Celsius. […]
parameter.measured: pKd
One number for each entry, as −log10 of the molar value.

Ask: For the molecule shown here, Clone 4772: Humanized IgG1 antibody, heavy chain variable region HvCh3 (SEQ ID NO: 3), light chain LiCh4 (SEQ ID NO: 8) (antibody, V domains shown) VH: EVQLVESGGGLVQPGGSLRLSCAASGFTFSTNAMSWVRQAPGKGLEWVARLRPKSDNYATYYADSVKGRFTISRDDSKNTLYLQMNSLRAEDTAVYYCVTGTGFWGQGTTLTVSS VL: DIVMTQSPDSLAVSLGERVTMNCKSSQSLLNSGNQKNYLTWYQQKPGQPPKLLFYWTSTRESGVPDRFSGSGSGTDFTLTISSVQAEDVAVYYCQNDYTSPYTFGQGTKLEIK , give the reported pKd.
Result: 4.11
